Target: Dual specificity tyrosine-phosphorylation-regulated kinase 1A (Rattus norvegicus)
Assay: Inhibition of GST-fused rat recombinant DYRK1A expressed in Escherichia coli using Woodtide as substrate and [gamma-33P] after 30 mins by scintillation counting
pIC50: −log10 of the molar value.
Lab note: anything with pIC50 at or over 6 counts as Satisfied; the rest go in Not satisfied.

Solved cases (7 shown):
O=C1NC(=O)c2c1c1c3ccccc3[nH]c1n1nccc21 :: Not satisfied
O=C1NC(=O)c2c1c1c3cc(O)ccc3[nH]c1c1cccn21 :: Satisfied
O=C1NC(=O)c2c1c1[nH]ncc1c1[nH]c3ccccc3c21 :: Not satisfied
COc1ccc2[nH]c3c(c4c(n5cccc35)C(=O)NC4=O)c2c1 :: Not satisfied
COc1ccc2[nH]c3c(c4c(c5ccnn53)C(=O)NC4=O)c2c1 :: Not satisfied
Cc1ccc2[nH]c3c(c4c(n5cccc35)C(=O)NC4=O)c2c1 :: Not satisfied
O=C1NC(=O)c2c1c1c3cc(O)ccc3[nH]c1n1nccc21 :: Satisfied

Moving on to another compound below.
Test whether the compound Cc1ccc2[nH]c3c(c4c(c5ccnn53)C(=O)NC4=O)c2c1 records pIC50 of 6 or higher. Not satisfied

Origin of measurements: ChEMBL document CHEMBL2040806
